Biological target: T1, mouse TIGIT-Fc (rmTIGIT-Fc, R&D Systems) (mouse, UniProt P86176 29-148, limits assumed)
T1 construct: Bought protein; also called mouse TIGIT (rmTIGIT-Fc); not shown: Fc part of the bought fusion protein
T1 sequence (looked up): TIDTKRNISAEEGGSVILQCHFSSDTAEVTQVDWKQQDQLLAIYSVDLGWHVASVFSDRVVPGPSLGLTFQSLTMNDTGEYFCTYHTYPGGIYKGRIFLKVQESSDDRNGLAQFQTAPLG
Assay: SPR (BIAcore T200), antibody immobilised on CM5 chip, TIGIT-Fc flowed
Observable: koff (s⁻¹)
Only the number, expressed in s⁻¹, is required.

{"columns": ["Binder", "koff, s⁻¹"],
 "data": [
  ["10A7 antibody (antibody, V domains shown) VH: EVQLVESGGGLTQPGKSLKLSCEASGFTFSSFTMHWVRQSPGKGLEWVAFIRSGSGIVFYADAVRGRFTISRDNAKNLLFLQMNDLKSEDTAMYYCARRPLGHNTFDSWGQGTLVTVSS VL: DIVMTQSPSSLAVSPGEKVTMTCKSSQSLYYSGVKENLLAWYQQKPGQSPKLLIYYASIRFTGVPDRFTGSGSGTDYTLTITSVQAEDMGQYFCQQGINNPLTFGDGTKLEIKR", "8.91e-05"],
  ["S64-39-IgG4 (antibody, V domains shown, also called 564-39-IgG4 [sic]) VH: EVQLLESGGGLVQPGGSLRLSCAASGFTFSNYAMSWVRQAPGKGLEWVSGISPSGSSIYYADSVQGRFTISRDNSKNTLYLQMNSLRAEDTAVYYCAKAIRTCSLSHCYYYYGMDVWGQGTLVTVSS VL: QSVLTQPPSASGTPGQRVTISCSSSSSNIGSNAVNWYQQLPGTAPKLLIYYDNQRPSGVPDRFSGSKSGTSASLAISGLRSEDEADYYCATWDYSLSGYVFGGGTKLTVL", 0.000194],
  ["F04-10-IgG1 (antibody, V domains shown, also called antibody based on the F04-10 clones) VH: EVQLLESGGGLVQPGGSLRLSCAASGFTFSSYYMSWVRQAPGKGLEWVSSIGSGSPSSTYYADSVKGRFTISRDNSKNTLYLQMNSLRAEDTAVYYCARSSYSGGNGYYYYAYAFDYWGQGTLVTVSS VL: EIVLTQSPGTLSLSPGERATLSCRASQSVSSSYLAWYQQKPGQAPRLLIYGASSRATGIPDRFSGSGSGTDFTLTISRLEPEDFAVYYCQQGYHRYATFGQGTKVEIK", "2.93e-05"]
]}

--- query ---
Lookup: I would be grateful if you could share the reported koff for S64-39-IgG1 (antibody, V domains shown, also called 564-39-IgG1 [sic]; antibody based on the S64-39 clones) VH: EVQLLESGGGLVQPGGSLRLSCAASGFTFSNYAMSWVRQAPGKGLEWVSGISPSGSSIYYADSVQGRFTISRDNSKNTLYLQMNSLRAEDTAVYYCAKAIRTCSLSHCYYYYGMDVWGQGTLVTVSS VL: QSVLTQPPSASGTPGQRVTISCSSSSSNIGSNAVNWYQQLPGTAPKLLIYYDNQRPSGVPDRFSGSKSGTSASLAISGLRSEDEADYYCATWDYSLSGYVFGGGTKLTVL .
Found: 0.000201

The measurements presented in this section are drawn from patent US20210087268A1.
